Values from PubChem BioAssay (NCI)

System: SR leukemia
assay-procedure: NCI-60 one-dose screen, 48 h (100 = growth as untreated, 0 = no growth, -100 = all killed)
condition-set: 10 µM unless noted
The panel holds about 83,000 compounds, 20% with a hit somewhere; the sample as a whole holds those more often.
Recorded growth values for a group of compounds are listed next.
metric: growth (%)

compound: CC(C)(C)NCC(O)COc1c(Br)c(Br)c(Br)c2c1OC(C)(C)C2 (centres undefined)
endpoint-value: -61.6
--
compound: COc1ccc(Cn2cc(COc3ccc4c5ccnc(C)c5n(CCCc5ccccc5)c4c3)nn2)cc1
endpoint-value: -29
--
compound: COc1cc(Cn2cc3c(c2)-c2onc(CO)c2CC3)cc(OC)c1OC
endpoint-value: 71.8
--
compound: Cc1cc2nc(-c3c(N)ncc(C#N)c3-c3ccc(Cl)cc3)[nH]c2cc1C
endpoint-value: 49.4
--
compound: COc1ccc(C2=NN(C(=O)COc3ccc(Cl)cc3)C(O)(c3cc(F)c(Cl)cc3Cl)C2)cc1OC (centres undefined)
endpoint-value: -35.1
--
compound: Nc1ncc(-c2ccc3ncnc(Nc4cncc(Cl)c4)c3c2)cn1
endpoint-value: 73.8
--
compound: S=C=NP1(N=C=S)=NP(N=C=S)(N=C=S)=NP(N=C=S)(N=C=S)=NP(N=C=S)(N=C=S)=N1 (centres undefined)
endpoint-value: 88.8
--
compound: CC(=O)Cc1cccnc1
endpoint-value: 104
--
compound: CCCCC(=O)Nc1nc2ccc(SCCC)cc2s1
endpoint-value: 6.63
--
compound: CC(NCCC(c1ccccc1)c1ccccc1)c1ccccc1 (centres undefined)
endpoint-value: -35.6
--
compound: CNCCCOc1c(Br)cc(CCNC(=O)/C(Cc2cc(Br)c(OC)c(Br)c2)=N/O)cc1Br
endpoint-value: -57
--
compound: CCCCCC/C=N/Nc1ccc([N+](=O)[O-])cn1
endpoint-value: 89.4
--
compound: O=C(Nc1ccc(-n2ccc3c(NC(=O)c4ccccc4)ncnc32)cc1)c1ccc(Cl)c(C(F)(F)F)c1
endpoint-value: -19.6
--
compound: COc1ccccc1C(OC(C)=O)OC(C)=O
endpoint-value: 88.7
--
compound: CN[C@@H](CCCNC(N)=NC/C=C(/C)CCC=C(C)C)C(=O)N(C)[C@@H](CCCNC(N)=NCC=C(C)C)C(=O)N[C@H](C)[C@H](OS(=O)(=O)O)c1ccc(OS(=O)(=O)O)c(COS(=O)(=O)O)c1
endpoint-value: 114
--
compound: Nc1nccc2c1ccn2-c1ccc(NC(=O)c2ccc(N3CCOCC3)c(C(F)(F)F)c2)cc1
endpoint-value: 14.9
--
compound: Cc1ccn2cc(Cc3cc(=O)oc4c3ccc3ccccc34)c(=O)nc2c1
endpoint-value: 92.7
--
compound: C=CC(=O)NC(=O)Nc1ccccc1Cl
endpoint-value: 39.8
--
compound: COc1ccc(-c2cc(-c3nnc(SC/C(=N\O)c4ccccc4)n3-c3ccccc3)c3ccccc3n2)cc1
endpoint-value: 86.8
